- assaySummary: ATG_TCF_b_cat_CIS: Attagene CIS-FACTORIAL HepG2 Assay for human T-Cell-Factor with beta-catenin (TCF/b-cat) (AID 2282965)
- protocolConditions: HepG2 TCF/beta-catenin cis-reporter transcription, actives raise or lower the signal
The source made the active and inactive calls. The calls were made as follows: active = hit-call score of the fitted dose curve at least 0.9, where 1 is the maximum; inactive = score below 0.9.
The reply should name one outcome from true = active, false = inactive

Use these answered entries as a reference point.
CCCCCCCCCOS(=O)(=O)O :: false
OCC=Cc1ccccc1 :: false
COc1ccccc1NC(=O)CC(C)=O :: false
CCC(C)(C)c1cc(O)c(C(C)(C)CC)cc1O :: true
C1CCCNCC1 :: false
C=CC(=O)OCCCCCC :: false

Input: Look up the recorded call for `CCCCCCCOC(C)=O` in this test.
Output: false

Input: Assay outcome for `NC(=O)c1cnccn1` : what was it?
Output: false

Input: For `C[C@]12CC[C@@H]3c4ccc(O)cc4CC[C@H]3[C@@H]1CC[C@@H]2O` , what call appears in the results of this test?
Output: false

Input: Dear colleague, could you share the recorded outcome for `CC(=O)c1cccnc1` when you have a moment?
Output: false

Input: Tell me the assay call for `CCCC[N+](C)(CCCC)CCCC` please.
Output: false
